# assayed_target: IDO1 (Homo sapiens, UniProt P14902)
# Construct: HeLa cells were treated with a test compound in the presence of IFNγ, which induces IDO1 expression; host or cells: H1-HeLa cells, IDO1 induced with IFNγ
# Sequence (P14902 whole entry): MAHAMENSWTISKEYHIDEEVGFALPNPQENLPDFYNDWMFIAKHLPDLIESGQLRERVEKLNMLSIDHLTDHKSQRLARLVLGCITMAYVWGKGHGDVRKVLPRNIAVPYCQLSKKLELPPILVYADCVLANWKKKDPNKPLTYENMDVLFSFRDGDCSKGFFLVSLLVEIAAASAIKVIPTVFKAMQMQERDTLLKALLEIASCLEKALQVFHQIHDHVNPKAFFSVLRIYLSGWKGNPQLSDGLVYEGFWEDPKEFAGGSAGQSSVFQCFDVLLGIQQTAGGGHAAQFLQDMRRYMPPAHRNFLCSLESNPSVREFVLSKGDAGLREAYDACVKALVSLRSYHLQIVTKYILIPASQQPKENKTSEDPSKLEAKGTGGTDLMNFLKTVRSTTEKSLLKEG
# assay_comment: Cell-based (HeLa) assay for measurement of IDO1 inhibition (kynurenine levels in supernatant)
# measurement_parameters: H1-HeLa cells, IDO1 induced with IFNγ, 48 hour incubation, kynurenine read by absorbance at 480 nm; geometric mean of a minimum of four determinations
pEC50: −log10 of the molar value.
If the reported pEC50 equals or exceeds 7, assign Satisfied. If not, assign Not satisfied.

See these solved cases before continuing.
1) CC1(C)C(=O)N(c2ncccn2)c2cccc(-c3ccc(C(F)(F)F)c(C(=O)Nc4ccncc4)c3)c21 [Example 26]; Satisfied
2) CC1(C)C(=O)N(c2ncccn2)c2cccc(-c3ccc(C(F)(F)F)c(C(=O)Nc4cncnc4)c3)c21 [Example 47]; Not satisfied
3) Cc1ncc(-c2cccc3c2C(C)(C)C(=O)N3c2cnccn2)cc1C(=O)Nc1ccc(F)cc1 [Example 15]; Not satisfied
4) CC1(C)C(=O)N(c2ccccn2)c2nccc(-c3ccc(C(F)(F)F)c(C(=O)Nc4ccc(F)cn4)c3)c21 [Example 28]; Satisfied
5) Cc1ccc(-c2cccc3c2C(C)(C)C(=O)N3c2ncccn2)nc1C(=O)Nc1ccc(F)cc1 [Example 41]; Not satisfied

Quick check: does Cc1ccc(-c2cccc3c2C(C)(C)C(=O)N3c2ccccn2)cc1C(=O)Nc1ccc(F)cc1 [Example 10] have pEC50 greater than or equal to 7? Satisfied

Quick check: does CC1(C)C(=O)N(c2cccnc2)c2nccc(-c3ccc(C(F)(F)F)c(C(=O)Nc4ccc(F)c(F)c4)c3)c21 [Example 32] have pEC50 greater than or equal to 7? Satisfied

Quick check: does Cn1cc(N2C(=O)C(C)(C)c3c(-c4ccc(C(F)(F)F)c(C(=O)Nc5ccc(F)cc5)c4)cccc32)cn1 [Example 23] have pEC50 greater than or equal to 7? Not satisfied

###

# assayed_target: IDO1 (Homo sapiens, UniProt P14902)
# Construct: HeLa cells were treated with a test compound in the presence of IFNγ, which induces IDO1 expression
# assay_comment: Cell-based (HeLa) assay for measurement of IDO1 inhibition (kynurenine levels in supernatant)
# measurement_parameters: H1-HeLa cells, IDO1 induced with IFNγ, 48 hour incubation, kynurenine read by absorbance at 480 nm; geometric mean of a minimum of four determinations
Label key: Criterion met means EC50 under 40 nM; Criterion not met means EC50 of 40 nM or more.

See these solved cases before continuing.
1. CC1(C)C(=O)N(c2cccnc2)c2nccc(-c3ccc(C(F)(F)F)c(C(=O)Nc4ccccc4)c3)c21; Criterion met
2. Cc1ccc(-c2cccc3c2C(C)(C)C(=O)N3c2ncccn2)cc1C(=O)Nc1ccc(F)cc1; Criterion met

Strictly below 40 nM in EC50? "Cc1ccc(-c2cccc3c2oc(=O)n3-c2cccc(F)c2F)cc1C(=O)Nc1ccc(F)cc1" Criterion not met

Strictly below 40 nM in EC50? "Cc1ccc(-c2cccc3c2oc(=O)n3-c2cccnc2)cc1C(=O)Nc1ccc(F)cc1" Criterion met

Strictly below 40 nM in EC50? "CC1(C)C(=O)N(c2ncccn2)c2cccc(-c3ccc(C(F)(F)F)c(C(=O)Nc4cccnc4)c3)c21" Criterion not met

Strictly below 40 nM in EC50? "CC1(C)Oc2c(-c3ccc(C(F)(F)F)c(C(=O)Nc4ccc(F)cc4)c3)cccc2N(c2ccccn2)C1=O" Criterion not met

Strictly below 40 nM in EC50? "Cc1ccc(-c2cccc3c2C(C)(C)C(=O)N3c2ncccn2)c(F)c1C(=O)Nc1ccc(F)cc1" Criterion met

Strictly below 40 nM in EC50? "Cc1ncc(-c2cccc3c2C(C)(C)C(=O)N3c2ccccn2)cc1C(=O)Nc1ccc(F)cc1" Criterion not met

Strictly below 40 nM in EC50? "CC1(C)C(=O)N(c2ccncc2)c2cccc(-c3ccc(C(F)(F)F)c(C(=O)Nc4ccc(F)cc4)c3)c21" Criterion met

Strictly below 40 nM in EC50? "CC1(C)C(=O)N(Cc2ncccn2)c2cccc(-c3ccc(C(F)(F)F)c(C(=O)Nc4ccc(F)cc4)c3)c21" Criterion not met

Strictly below 40 nM in EC50? "CC1(C)Oc2c(-c3ccc(C(F)(F)F)c(C(=O)Nc4ccc(F)cc4)c3)cccc2N(c2ncccn2)C1=O" Criterion not met

Strictly below 40 nM in EC50? "CC1(C)C(=O)N(c2ncccn2)c2cccc(-c3ccc(OC(F)(F)F)c(C(=O)Nc4ccc(F)cc4)c3)c21" Criterion not met

Strictly below 40 nM in EC50? "CC1(C)C(=O)N(c2cn[nH]c2)c2cccc(-c3ccc(C(F)(F)F)c(C(=O)Nc4ccc(F)cc4)c3)c21" Criterion met

###

# assayed_target: IDO1 (Homo sapiens)
# Construct: HeLa cells were treated with a test compound in the presence of IFNγ, which induces IDO1 expression
# assay_comment: Cell-based (HeLa) assay for measurement of IDO1 inhibition (kynurenine levels in supernatant)
# measurement_parameters: H1-HeLa cells, IDO1 induced with IFNγ, 48 hour incubation, kynurenine read by absorbance at 480 nm; geometric mean of a minimum of four determinations
measurement_kind: log10 of EC50 (log10 of the value in nM)
Recall that a logarithmic scale is used here: each number is log10 of EC50 in nM.

1. Cc1ncc(-c2cccc3c2C(C)(C)C(=O)N3c2ncccn2)cc1C(=O)Nc1ccc(F)cc1; 2.02

What measured log10 of EC50 is associated with "CC1(C)C(=O)N(c2ncccn2)c2cccc(-c3ccc(C(F)(F)F)c(C(=O)Nc4ccccc4)c3)c21" on IDO1 (Homo sapiens)? 1.45

What measured log10 of EC50 is associated with "CC1(C)C(=O)N(c2ncc[nH]2)c2cccc(-c3ccc(C(F)(F)F)c(C(=O)Nc4ccc(F)cc4)c3)c21" on IDO1 (Homo sapiens)? 1.49

What measured log10 of EC50 is associated with "CC1(C)C(=O)N(c2ccncn2)c2cccc(-c3cnc(C(F)(F)F)c(C(=O)Nc4ccc(F)cc4)c3)c21" on IDO1 (Homo sapiens)? 1.52

What measured log10 of EC50 is associated with "CC1(C)C(=O)N(c2ncccn2)c2cccc(-c3ccc(C(F)(F)F)c(C(=O)Nc4ccc(F)cc4)c3)c21" on IDO1 (Homo sapiens)? 1.00

What measured log10 of EC50 is associated with "CC1(C)C(=O)N(c2cccnc2)c2cccc(-c3cnc(C(F)(F)F)c(C(=O)Nc4ccccc4)c3)c21" on IDO1 (Homo sapiens)? 1.72

###

# assayed_target: IDO1 (Homo sapiens, UniProt P14902)
# Construct: HeLa cells were treated with a test compound in the presence of IFNγ, which induces IDO1 expression
# assay_comment: Cell-based (HeLa) assay for measurement of IDO1 inhibition (kynurenine levels in supernatant)
# measurement_parameters: H1-HeLa cells, IDO1 induced with IFNγ, 48 hour incubation, kynurenine read by absorbance at 480 nm; geometric mean of a minimum of four determinations
pEC50: −log10 of the molar value.
If the reported pEC50 equals or exceeds 7, assign rule met. If not, assign rule not met.

See these solved cases before continuing.
1) CC1(C)C(=O)N(c2cc[nH]n2)c2cccc(-c3ccc(C(F)(F)F)c(C(=O)Nc4ccc(F)cc4)c3)c21 [Example 5]; rule met
2) CC1(C)C(=O)N(c2ncccn2)c2cccc(-c3ccc(C(F)(F)F)c(C(=O)Nc4ccc(F)c(Br)c4)c3)c21 [Example 31]; rule met
3) CC1(C)C(=O)N(c2cccc(F)c2F)c2cccc(-c3ccc(C(F)(F)F)c(C(=O)Nc4ccc(F)cc4)c3)c21 [Example 38]; rule met
4) CC1(C)C(=O)N(c2ccncn2)c2cccc(-c3ccc(C(F)(F)F)c(C(=O)Nc4ccc(F)cc4)c3)c21 [Example 3]; rule met
5) CC1(C)C(=O)N(c2ncccn2)c2cccc(-c3ccc(C(F)(F)F)c(C(=O)Nc4ccc(F)c(F)c4)c3)c21 [Example 30]; rule met

Proceed to the following item.
Quick check: does CC1(C)C(=O)N(c2cccnc2)c2nccc(-c3ccc(C(F)(F)F)c(C(=O)Nc4ccc(C#N)cn4)c3)c21 [Example 19] have pEC50 greater than or equal to 7? rule met

###

# assayed_target: IDO1 (Homo sapiens, UniProt P14902)
# Construct: HeLa cells were treated with a test compound in the presence of IFNγ, which induces IDO1 expression; host or cells: H1-HeLa cells, IDO1 induced with IFNγ
# assay_comment: Cell-based (HeLa) assay for measurement of IDO1 inhibition (kynurenine levels in supernatant)
# measurement_parameters: H1-HeLa cells, IDO1 induced with IFNγ, 48 hour incubation, kynurenine read by absorbance at 480 nm; geometric mean of a minimum of four determinations
pEC50: −log10 of the molar value.
If the reported pEC50 equals or exceeds 7, assign y. If not, assign n.

See these solved cases before continuing.
1. CC1(C)C(=O)N(c2cnccn2)c2cccc(-c3ccc(C(F)(F)F)c(C(=O)Nc4ccc(F)cc4)c3)c21; y
2. CC1(C)C(=O)N(c2cccnc2)c2cccc(-c3ccc(C(F)(F)F)c(-c4nc5cc(F)ccc5[nH]4)c3)c21; n
3. CC1(C)C(=O)N(c2cccnc2)c2cccc(-c3ccc(C(F)(F)F)c(C(=O)Nc4ccc(F)cc4)c3)c21; y
4. CC1(C)C(=O)N(c2cncc(F)c2)c2cccc(-c3cnc(C(F)(F)F)c(C(=O)Nc4ccc(F)cc4)c3)c21; y
5. CC1(C)C(=O)N(c2ccccn2)c2cccc(-c3ccc(C(F)(F)F)c(C(=O)Nc4ccc(F)cc4)c3)c21; y
6. O=C(Nc1ccc(F)cc1)c1cc(-c2cccc3c2[nH]c(=O)n3-c2ncccn2)ccc1C(F)(F)F; n

Proceed to the following item.
Quick check: does "CC1(C)C(=O)N(c2ccccn2)c2nccc(-c3ccc(C(F)(F)F)c(C(=O)Nc4ccc(F)cc4)c3)c21" have pEC50 greater than or equal to 7? y
